Form: system (UniProtKB P10635), quantity (AC50), values below.
Sequence (P10635 whole entry): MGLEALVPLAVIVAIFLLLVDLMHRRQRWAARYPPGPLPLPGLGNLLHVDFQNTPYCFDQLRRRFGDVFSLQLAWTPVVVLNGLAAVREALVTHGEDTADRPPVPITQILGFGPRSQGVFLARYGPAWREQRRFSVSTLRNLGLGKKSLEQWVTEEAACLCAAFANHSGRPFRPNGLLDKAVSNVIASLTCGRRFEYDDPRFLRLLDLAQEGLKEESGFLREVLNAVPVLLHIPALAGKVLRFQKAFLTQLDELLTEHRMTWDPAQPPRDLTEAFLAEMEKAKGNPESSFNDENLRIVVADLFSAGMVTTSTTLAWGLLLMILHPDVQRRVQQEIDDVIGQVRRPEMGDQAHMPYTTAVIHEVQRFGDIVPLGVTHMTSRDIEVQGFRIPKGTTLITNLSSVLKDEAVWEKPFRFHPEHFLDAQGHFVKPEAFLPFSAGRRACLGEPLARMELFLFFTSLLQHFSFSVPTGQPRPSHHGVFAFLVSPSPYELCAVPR
The source made the active and inactive calls.

Consider the following illustrative entries.
>>> df
                                   compound          reported_value
0  O=C(Nc1ccccc1)N1CCCC2(CCN(C(=O)c3csnn3)CC2)C1  39.8 µM (inconclusive)
1  O=C(CSc1nc2ccccc2c(=O)n1NC(=O)Cc1ccccc1)NCc1ccccc1Cl  2.82 µM (inconclusive)

Give AC50 for all compounds that follow.
1. COC(=O)[C@@]1(Cc2ccc(OC)cc2)[C@H]2c3cc(C(=O)N4CCCC4)n(Cc4c(CO)ncc(C)c4O)c3C[C@H]2CN1C(=O)c1ccccc1
2. O=S(=O)(NC1CCN(Cc2ccccc2)CC1)c1cccc2cccnc12
3. Cc1ccc2[nH]c(SCc3ccc([N+](=O)[O-])cc3)nc2c1
4. Cc1cc2c(nc1C)CCCCN2C[C@H](O)CN1CCCc2nc(-c3ccc(Br)cc3)ccc21
5. O=C(NCC1CCCO1)C(c1cccnc1)N(C(=O)Cc1cccs1)c1ccccc1 (centres undefined)
6. Cc1noc(C)c1-c1nc(N2CCN(C)CC2)c2ccccc2n1

1: 20 µM (inconclusive); 2: 1.58 µM (inconclusive); 3: 5.01 µM (active); 4: 3.16 µM (inconclusive); 5: 15.8 µM (inconclusive); 6: 39.8 µM (inconclusive)

Return the recorded AC50 value; entry: C=CC[C@@H]1C=C[C@H](Oc2ccc(C)cc2)[C@H](COC(=O)NCc2cccc3ccccc23)O1
7.94 µM (inconclusive)

* * *

# target.of.assay: Long-chain-fatty-acid--AMP ligase FadD28 (Mycobacterium tuberculosis, UniProt P9WQ59)
# Sequence (P9WQ59 whole entry): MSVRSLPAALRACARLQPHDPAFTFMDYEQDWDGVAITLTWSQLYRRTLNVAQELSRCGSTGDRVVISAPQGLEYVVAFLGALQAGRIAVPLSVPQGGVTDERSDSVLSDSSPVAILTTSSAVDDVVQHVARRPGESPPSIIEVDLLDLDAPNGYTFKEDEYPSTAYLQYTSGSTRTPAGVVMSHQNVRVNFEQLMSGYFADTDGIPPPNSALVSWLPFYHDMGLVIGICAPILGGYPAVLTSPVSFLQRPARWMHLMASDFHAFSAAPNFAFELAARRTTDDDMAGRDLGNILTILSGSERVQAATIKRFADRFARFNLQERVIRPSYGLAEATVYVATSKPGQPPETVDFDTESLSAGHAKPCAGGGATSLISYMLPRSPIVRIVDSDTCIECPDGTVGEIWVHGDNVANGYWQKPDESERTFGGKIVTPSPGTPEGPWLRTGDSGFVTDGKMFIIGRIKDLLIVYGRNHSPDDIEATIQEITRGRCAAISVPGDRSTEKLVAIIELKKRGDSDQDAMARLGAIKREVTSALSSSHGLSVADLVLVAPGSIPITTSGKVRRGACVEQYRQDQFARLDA
# measurement.notes: Fluorescence polarization aasay to screen for inhibitors that compete for the binding of FadD28 to a bisubstrate Measured in Biochemical System Using Plate Reader - 2147-01_Inhibitor_Dose_CherryPick_Activity.
# Format: functional, Mycobacterium tuberculosis H37Rv
Calls of active or inactive are those of the source.
Returns: one label drawn from Yes (active), No (inactive)

// known answers, use as guide
>>> df
                                   molecule  class
0      COc1cccc(NC(=O)Cn2c(=O)oc3ccccc32)c1    Yes
1  COc1ccc(C(=O)OCC(=O)c2ccccc2)cc1S(=O)(=O)N1CCOCC1     No
2  O=C(CSc1nc(O)cc(=O)n1-c1ccccc1)Nc1nc2ccccc2s1    Yes
3  COc1cc(/C=N/NC(=O)C(Cc2c[nH]c3ccccc23)NC(=O)OCC(C)C)cc([N+](=O)[O-])c1O (configuration not stated)    Yes
4    O=C(O)c1ccc(N/N=C/C(Br)=C/c2ccccc2)cc1     No

For this molecule, state the assay outcome: COc1ccc2c(c1)Cc1cc(NC(=O)c3ccccc3-c3ccccc3C(=O)O)ccc1-2
Yes

For this molecule, state the assay outcome: Cc1cc(N)n(-c2ccc(Oc3ccccc3)c(S(=O)(=O)O)c2)n1
No

* * *

Form: system (UniProt:P08684), quantity (AC50), values below.
Sequence (P08684 whole entry): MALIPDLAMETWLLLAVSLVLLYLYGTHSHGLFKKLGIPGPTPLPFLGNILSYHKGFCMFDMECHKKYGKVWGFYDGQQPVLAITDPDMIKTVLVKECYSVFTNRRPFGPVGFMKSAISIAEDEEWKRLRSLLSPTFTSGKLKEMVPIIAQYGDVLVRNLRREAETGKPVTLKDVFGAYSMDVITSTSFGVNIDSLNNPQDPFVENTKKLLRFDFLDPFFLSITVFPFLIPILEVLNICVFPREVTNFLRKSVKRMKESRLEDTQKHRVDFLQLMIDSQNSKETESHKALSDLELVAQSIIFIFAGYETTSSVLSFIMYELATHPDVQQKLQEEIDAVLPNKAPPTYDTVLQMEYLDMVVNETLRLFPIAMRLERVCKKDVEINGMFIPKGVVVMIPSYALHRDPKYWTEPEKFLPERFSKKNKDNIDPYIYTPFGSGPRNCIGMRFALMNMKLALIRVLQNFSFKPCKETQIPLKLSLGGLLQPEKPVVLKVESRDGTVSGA

Give AC50 for all molecules that follow.
1. C=CCSc1nc(O)c2sc3nc(C)cc(C)c3c2n1
2. CN1CCC(N(C)C(=O)CCc2nc(O)c3ccccc3n2)CC1

1. 11.2 µM (inconclusive)
2. 28.2 µM (inconclusive)
